IC50 tested on UniProt P15145: recorded values
Sequence (P15145 whole entry): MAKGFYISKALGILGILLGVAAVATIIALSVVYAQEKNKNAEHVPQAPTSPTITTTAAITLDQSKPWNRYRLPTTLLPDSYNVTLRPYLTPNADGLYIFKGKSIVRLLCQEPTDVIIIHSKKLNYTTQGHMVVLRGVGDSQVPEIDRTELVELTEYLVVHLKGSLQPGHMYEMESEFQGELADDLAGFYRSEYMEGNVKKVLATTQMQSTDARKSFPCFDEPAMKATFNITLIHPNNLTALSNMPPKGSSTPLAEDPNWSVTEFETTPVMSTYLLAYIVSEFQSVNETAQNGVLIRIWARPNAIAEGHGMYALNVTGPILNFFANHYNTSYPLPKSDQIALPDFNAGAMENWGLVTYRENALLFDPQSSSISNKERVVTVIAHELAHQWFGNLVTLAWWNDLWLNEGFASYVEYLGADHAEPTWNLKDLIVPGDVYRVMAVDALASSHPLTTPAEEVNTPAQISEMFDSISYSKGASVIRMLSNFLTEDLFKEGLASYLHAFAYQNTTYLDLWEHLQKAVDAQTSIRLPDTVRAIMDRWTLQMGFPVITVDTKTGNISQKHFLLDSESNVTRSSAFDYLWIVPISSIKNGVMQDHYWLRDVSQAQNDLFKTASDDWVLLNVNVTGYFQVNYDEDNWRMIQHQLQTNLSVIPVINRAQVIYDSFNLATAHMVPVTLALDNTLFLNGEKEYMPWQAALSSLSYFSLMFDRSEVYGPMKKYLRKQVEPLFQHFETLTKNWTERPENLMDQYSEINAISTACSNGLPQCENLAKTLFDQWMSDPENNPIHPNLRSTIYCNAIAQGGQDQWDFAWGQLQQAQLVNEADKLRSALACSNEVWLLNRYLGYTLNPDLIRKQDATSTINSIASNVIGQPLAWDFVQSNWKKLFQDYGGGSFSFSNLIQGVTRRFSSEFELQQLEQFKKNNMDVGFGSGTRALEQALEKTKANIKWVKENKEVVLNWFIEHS
property.label: IC50 (µM)

Cl.N[C@@H](Cc1ccccc1)C(=O)NCC(=O)N[C@H]1C[C@@H](C(=O)NO)N(S(=O)(=O)c2ccc(Cl)cc2)C1 ... 89.9
CSCC[C@H](N)C(=O)NCC(=O)N[C@H]1C[C@@H](C(=O)NO)N(S(=O)(=O)c2ccc(Cl)cc2)C1.Cl ... 95.3
CC[C@H](C)[C@H](N)C(=O)NCC(=O)N[C@H]1C[C@@H](C(=O)NO)N(S(=O)(=O)c2ccc(OC)cc2)C1.Cl ... 89.9
CC(C)[C@H](N)C(=O)NCC(=O)N[C@H]1C[C@@H](C(=O)NO)N(S(=O)(=O)c2ccc(Cl)cc2)C1.Cl ... 79.6
